Source of measurements: patent US20250042889A1

Test: Pharmacokinetics in vivo experiment in cynomolgus macaques
Conditions: male, cynomolgus monkey, in vivo, po, 10 mg/kg
MEASURE_NAME: Cmax (ng/mL)
// units = ng/mL; emit number, no label

Reference set, count: 2
compound="CNc1cncc(C(=O)N2C[C@H](Nc3c(C(=O)N4C[C@@H](C)O[C@@H](C)C4)cc(Br)cc3[N+](=O)[O-])[C@@H](OC)C2)c1 [Example 321]" result_unit=ng/mL observed_value=699
compound="CNc1cncc(C(=O)N2CCC[C@@H](Nc3c(C(=O)N4CCCCC4)cc(Br)cc3[N+](=O)[O-])C2)c1 [Example 31]" result_unit=ng/mL observed_value=232

Look up Cmax of CNc1cncc(C(=O)N2CCC[C@@H](Nc3c(C(=O)N4C[C@@H](C)O[C@@H](C)C4)cc(Br)cc3[N+](=O)[O-])C2)c1 [Example 34] and report it. 1960

* * *

Biological target: SARS-COV-2 3CLpro/Mpro protease (Severe acute respiratory syndrome coronavirus 2 (2019-nCoV) (SARS-CoV-2))
Assay: Inhibitory effect on SARS-COV-2 3CLpro/Mpro protease by fluorescence resonance energy transfer
Type: biochemical
Conditions: activity intervals A-D, read-out: IC50 (nM), Inhibition on SARS-CoV-2 3CLpro/Mpro protease
IC50 for assorted compounds

smiles_str=CNc1cncc(C(=O)N2CCC[C@@H](Nc3c(C(=O)N4CC(F)(F)C(F)(F)C4)cc(Br)cc3[N+](=O)[O-])C2)c1 observed_value="10 to 50 nM"
smiles_str=CNc1cncc(C(=O)N2C[C@H](Nc3c(C(=O)N4CCCCC4)cc(Br)cc3[N+](=O)[O-])[C@H](OC)C2)c1 observed_value="10 to 50 nM"

# context switch: different compound, same IC50
Output IC50 of CC1(O)CCN(C(=O)c2cc(Br)cc(C(F)(F)F)c2N[C@@H]2CCCC[C@@H]2NC(=O)c2cncc3cc(Cl)ccc23)CC1 10 to 50 nM

* * *

Cmax values, listed per item
Assay: in vivo
Conditions: male, CD1, mouse, in vivo, po, 10 mg/kg
The reply should contain only the number, in ng/mL.

Completed entries (count: 3):
smiles_str=CNc1cncc(C(=O)N2C[C@H](Nc3c(C(=O)N4C[C@@H](C)O[C@@H](C)C4)cc(Br)cc3[N+](=O)[O-])C[C@@H](OC)C2)c1 measure_name=Cmax observed_value=725
smiles_str=O=C(c1cc(Br)cc([N+](=O)[O-])c1N[C@@H]1CCCN(C(=O)[C@H]2CNCC(F)(F)C2)C1)N1CCCCC1 measure_name=Cmax observed_value=825
smiles_str=CNc1cncc(C(=O)N2CCC[C@@H](Nc3c(C(=O)N4CCCCC4)cc(Br)cc3[N+](=O)[O-])C2)c1 measure_name=Cmax observed_value=401

Please report Cmax for the following molecule: CNc1cncc(C(=O)N2CCC[C@@H](Nc3c(C(=O)N4CCO[C@H](C)C4)cc(Br)cc3[N+](=O)[O-])C2)c1 1020

Kindly indicate its recorded Cmax. Item: CNc1cncc(C(=O)N2CCC[C@@H](Nc3c(C(=O)N4C5CCCC4COC5)cc(Br)cc3[N+](=O)[O-])C2)c1 594

Specify Cmax for CNc1cncc(C(=O)N2CCC[C@@H](Nc3c(C(=O)N4C[C@@H](C)O[C@@H](C)C4)cc(Br)cc3[N+](=O)[O-])C2)c1 and stop. 1020
